target: PI3K β (Homo sapiens)
Sequence (P42338 whole entry): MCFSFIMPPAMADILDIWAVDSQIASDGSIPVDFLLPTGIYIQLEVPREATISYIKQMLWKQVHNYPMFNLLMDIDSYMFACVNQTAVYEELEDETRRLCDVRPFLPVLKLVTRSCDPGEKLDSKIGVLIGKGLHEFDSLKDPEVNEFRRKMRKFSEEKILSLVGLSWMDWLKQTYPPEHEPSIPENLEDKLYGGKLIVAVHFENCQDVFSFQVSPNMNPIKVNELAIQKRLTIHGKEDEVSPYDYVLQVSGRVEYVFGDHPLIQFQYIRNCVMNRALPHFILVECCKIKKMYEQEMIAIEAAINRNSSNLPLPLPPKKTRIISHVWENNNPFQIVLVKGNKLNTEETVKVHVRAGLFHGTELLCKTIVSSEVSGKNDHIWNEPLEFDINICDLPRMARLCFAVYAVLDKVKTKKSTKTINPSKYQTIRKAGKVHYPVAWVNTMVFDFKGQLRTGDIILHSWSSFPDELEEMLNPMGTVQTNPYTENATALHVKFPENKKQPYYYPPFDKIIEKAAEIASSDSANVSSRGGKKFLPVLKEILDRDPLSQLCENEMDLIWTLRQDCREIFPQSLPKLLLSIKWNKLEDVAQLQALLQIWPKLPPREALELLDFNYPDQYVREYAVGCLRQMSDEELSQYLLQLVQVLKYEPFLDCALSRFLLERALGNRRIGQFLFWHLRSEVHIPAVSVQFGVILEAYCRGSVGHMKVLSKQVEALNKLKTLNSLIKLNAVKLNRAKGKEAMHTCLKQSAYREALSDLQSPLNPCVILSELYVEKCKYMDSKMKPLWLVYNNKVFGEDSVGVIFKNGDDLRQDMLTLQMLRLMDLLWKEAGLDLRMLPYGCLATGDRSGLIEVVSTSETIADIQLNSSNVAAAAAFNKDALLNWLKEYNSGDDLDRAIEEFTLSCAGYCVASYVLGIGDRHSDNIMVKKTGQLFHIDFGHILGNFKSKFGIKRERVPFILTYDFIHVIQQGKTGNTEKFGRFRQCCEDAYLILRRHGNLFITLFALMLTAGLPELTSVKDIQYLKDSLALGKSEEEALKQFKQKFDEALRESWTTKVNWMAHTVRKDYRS
Sequence (P27986 whole entry partner): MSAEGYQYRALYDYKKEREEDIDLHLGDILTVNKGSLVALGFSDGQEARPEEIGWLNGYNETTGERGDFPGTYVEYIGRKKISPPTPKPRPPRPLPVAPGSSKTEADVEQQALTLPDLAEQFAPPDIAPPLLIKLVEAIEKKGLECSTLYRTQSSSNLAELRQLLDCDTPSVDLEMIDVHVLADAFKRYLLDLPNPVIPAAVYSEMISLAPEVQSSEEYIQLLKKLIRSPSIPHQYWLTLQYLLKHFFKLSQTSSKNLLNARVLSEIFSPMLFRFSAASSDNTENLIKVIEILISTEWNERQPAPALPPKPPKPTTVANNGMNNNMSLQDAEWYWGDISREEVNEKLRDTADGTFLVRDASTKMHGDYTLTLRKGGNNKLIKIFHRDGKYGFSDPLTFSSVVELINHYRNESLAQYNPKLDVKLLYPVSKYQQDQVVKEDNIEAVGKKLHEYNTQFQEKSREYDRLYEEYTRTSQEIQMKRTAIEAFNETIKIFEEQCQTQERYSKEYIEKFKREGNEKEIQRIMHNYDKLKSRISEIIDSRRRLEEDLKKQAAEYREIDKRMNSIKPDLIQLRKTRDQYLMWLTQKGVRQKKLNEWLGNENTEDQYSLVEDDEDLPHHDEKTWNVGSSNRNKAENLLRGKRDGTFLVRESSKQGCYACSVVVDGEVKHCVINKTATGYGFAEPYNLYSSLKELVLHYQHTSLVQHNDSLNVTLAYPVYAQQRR
IC50 reference
experimentalEndpoint: IC50

                          compoundstructure   result
0  CC(C)n1nc(-c2ccc3nc(N)oc3c2)c2c(N)ncnc21  < 10 µM
1  Nc1nc2cc(-c3nn(C4CC(=O)C4)c4ncnc(N)c34)ccc2o1  < 10 µM
2  COC(=O)Nc1noc2ccc(-c3nn(C(C)C)c4ncnc(N)c34)cc12  > 10 µM
3  CC(C)n1cc(-c2ccc3oc(N)nc3c2)c2c(N)ncnc21  > 10 µM

* * *

// UniProt O00329 IC50 records
Sequence (O00329 whole entry, one chain of several): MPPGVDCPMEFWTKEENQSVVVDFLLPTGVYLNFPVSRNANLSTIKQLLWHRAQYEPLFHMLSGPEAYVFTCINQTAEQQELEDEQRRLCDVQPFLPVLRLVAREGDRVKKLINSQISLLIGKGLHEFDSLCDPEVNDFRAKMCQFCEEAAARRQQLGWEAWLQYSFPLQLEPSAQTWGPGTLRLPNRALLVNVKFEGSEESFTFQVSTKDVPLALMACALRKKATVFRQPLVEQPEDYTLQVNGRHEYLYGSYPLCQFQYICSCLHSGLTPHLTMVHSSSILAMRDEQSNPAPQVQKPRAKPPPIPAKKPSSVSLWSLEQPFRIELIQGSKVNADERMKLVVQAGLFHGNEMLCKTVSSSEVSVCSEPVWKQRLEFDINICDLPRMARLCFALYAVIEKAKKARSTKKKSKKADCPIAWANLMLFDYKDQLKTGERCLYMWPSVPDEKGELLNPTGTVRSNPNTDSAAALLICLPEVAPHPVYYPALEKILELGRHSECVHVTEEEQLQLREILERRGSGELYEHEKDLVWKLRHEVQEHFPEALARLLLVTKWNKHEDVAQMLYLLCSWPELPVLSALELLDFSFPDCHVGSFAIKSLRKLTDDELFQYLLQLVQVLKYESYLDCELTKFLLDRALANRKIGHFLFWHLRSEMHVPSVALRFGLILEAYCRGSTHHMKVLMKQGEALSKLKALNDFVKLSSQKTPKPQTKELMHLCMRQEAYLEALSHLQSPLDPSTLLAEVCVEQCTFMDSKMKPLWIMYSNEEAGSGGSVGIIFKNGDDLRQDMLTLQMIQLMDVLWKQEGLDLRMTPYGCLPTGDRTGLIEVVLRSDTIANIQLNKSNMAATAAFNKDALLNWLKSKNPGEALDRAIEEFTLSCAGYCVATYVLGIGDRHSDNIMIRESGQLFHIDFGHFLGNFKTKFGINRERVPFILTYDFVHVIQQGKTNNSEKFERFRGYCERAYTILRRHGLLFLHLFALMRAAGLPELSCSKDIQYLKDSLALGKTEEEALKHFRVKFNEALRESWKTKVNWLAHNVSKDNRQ
experimentalEndpoint: IC50

>>> df
                                   molecule  experimentalendpoint   result
0  COC(=O)Nc1noc2cc(-c3nn(C(C)C)c4ncnc(N)c34)ccc12                  IC50  < 10 µM
1  CC(CO)n1nc(-c2ccc3oc(N)nc3c2)c2c(N)ncnc21 (stereo not drawn)                  IC50  < 10 µM
2  CC(=O)Nc1nc2cc(-c3nn(C(C)C)c4ncnc(N)c34)ccc2o1                  IC50   < 1 µM
3  CC(C)n1nc(-c2ccc3onc(NC4CC4)c3c2)c2c(N)ncnc21                  IC50  > 10 µM
4  Nc1noc2ccc(-c3nn(CC(=O)N4CCOCC4)c4ncnc(N)c34)cc12                  IC50  > 10 µM
5  COC(=O)Nc1noc2ccc(-c3nn(C(C)C)c4ncnc(N)c34)cc12                  IC50  > 10 µM
6  CC(C)n1cc(-c2ccc3oc(N)nc3c2)c2c(N)ncnc21                  IC50   < 1 µM
7  CNc1noc2cc(-c3nn(C(C)C)c4ncnc(N)c34)ccc12                  IC50   < 1 µM
8  Nc1nc2cc(-c3nn(C4CCC(N5CCOCC5)CC4)c4ncnc(N)c34)ccc2o1 (stereo not drawn)                  IC50   < 1 µM
